B1: RSPH3 (parent)
chain: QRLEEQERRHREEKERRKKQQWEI

Variants of: B1
Assay: protein stability index of a GFP-peptide fusion (GPS, HEK-293T) (PSI 1-6); higher = more stable;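 further: lentivirally expressed fusions sorted by FACS into six bins by GFP to DsRed ratio, PSI derived from sequencing read proportions per bin multiplied by bin number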
Settings: c terminus: a fixed tail appended
Tag: Criterion met if measured protein stability index is not below 5, Criterion not met if it is.

Evaluate Q20N : protein stability index at minimum 5?
Criterion not met

Evaluate R2I : protein stability index at minimum 5?
Criterion not met

Evaluate R9A : protein stability index at minimum 5?
Criterion met

Evaluate W22L : protein stability index at minimum 5?
Criterion met

Evaluate Q1Y : protein stability index at minimum 5?
Criterion not met
